test system: Rattus norvegicus; experiment: Toxicity in CFY Sprague-Dawley rat assessed as relative liver weight at 0.25% dietary level administered for 7 days relative to control; type: organism-based; conditions: in vivo, po, 168 h
Consider the cut-off 10%. If the recorded Activity is strictly smaller, the label is True; if not, the label is False.

>>> group("CCOC(=O)c1ccc(OCc2ccc(Cl)cc2Cl)cc1")
"True"
>>> group("O=C([O-])c1ccc(OCc2ccccc2)cc1.O=C([O-])c1ccc(OCc2ccccc2)cc1.[Ca+2]")
"True"
>>> group("COc1ccccc1COc1ccc(C(=O)O)cc1")
"False"
>>> group("CCOC(=O)c1ccc(OCc2cc(C)ccc2C)cc1")
"True"
>>> group("CCCc1ccc(OCc2ccc(C)cc2)c(OC)c1")
"False"

Determine whether this compound shows Activity lower than 10% (ties excluded): CCOC(=O)Cc1ccc(OCc2cccc(OC)c2OC)cc1
False

Check if Activity falls below 10% for COc1cc(C(=O)O)ccc1OCc1ccccc1 .
True

Please determine if COC(=O)Cc1ccc(OCc2ccccc2)c(OC)c1 is below 10% in terms of Activity.
True

Answer whether the compound CCOC(=O)CCCc1ccc(OCc2ccccc2)cc1 has Activity strictly less than 10%
True

Is Activity strictly under 10% for the entry CCCCCCCCCc1ccc(OCc2ccccc2)cc1 ?
True

Check if Activity falls below 10% for CCOC(=O)c1ccccc1OCc1ccccc1 .
True

Regarding CCOC(=O)Cc1ccc(OCc2ccc(Cl)cc2)cc1 , kindly confirm whether its Activity is beneath 10%.
False

# check: Activity < 10% for CCCCCCCCCCCCc1ccc(OCc2ccccc2)cc1
True

Please let me know if CCCCCCOC(=O)c1ccc(OCc2ccccc2)cc1 shows Activity below 10%.
True

Lab note: confirm whether the reported Activity for this compound is below 10%, equality not counting. compound: CCOC(=O)CCCCCc1ccc(OCc2ccccc2)cc1
False

Problem: For the compound CCOC(=O)c1ccc(OCc2cc(Cl)ccc2Cl)cc1 , is Activity under 10%?
False

Hello, I'm reviewing records and need to know if Activity of CCOC(=O)c1ccc(COc2ccccc2)cc1 is below 10%. Could you check?
False

A record lists OCc1ccc(OCc2ccccc2)cc1 . Is its Activity below 10%?
False

Item O=C(O)c1ccc(OCc2ccc(F)cc2)cc1 : Activity beneath 10%, strictly?
True

Is Activity strictly under 10% for the entry COC(=O)c1ccc(OCc2ccccc2)cc1 ?
False

Report whether reported Activity is lower than 10% (strictly) for CCOC(=O)c1ccc(COc2ccc(C#N)cc2)cc1
False

Does the reported Activity of CCc1ccc(OCc2ccccc2)cc1 stay below 10%?
False

Report whether reported Activity is lower than 10% (strictly) for CCOC(=O)c1ccc(OCc2ccc(I)cc2)cc1
False

Strictly below 10% in Activity? CCCCCCCCCCCCNC(=O)c1ccc(OCc2ccccc2)cc1
True

API: query returns whether the compound falls strictly under 10% in Activity. Query: N#Cc1ccc(OCc2ccc(Cl)c(Cl)c2)cc1
False

Is the reported Activity for Cc1ccc(OCc2ccccc2)cc1 strictly below 10%?
False
